The following compounds are listed with their measured Activity values.
# target of assay: UniProtKB P21730
# Sequence (P21730 whole entry): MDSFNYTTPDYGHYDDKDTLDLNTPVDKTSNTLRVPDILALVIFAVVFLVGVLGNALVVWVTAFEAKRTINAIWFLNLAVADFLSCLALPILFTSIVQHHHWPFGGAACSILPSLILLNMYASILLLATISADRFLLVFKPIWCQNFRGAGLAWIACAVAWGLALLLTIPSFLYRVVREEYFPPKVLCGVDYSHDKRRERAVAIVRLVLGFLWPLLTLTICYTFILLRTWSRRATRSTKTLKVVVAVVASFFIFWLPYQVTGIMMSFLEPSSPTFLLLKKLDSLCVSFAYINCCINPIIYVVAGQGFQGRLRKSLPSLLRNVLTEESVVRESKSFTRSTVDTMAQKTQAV
# experiment notes: Inhibition of radiolabeled C5a binding to its membrane bound C5a anaphylatoxin chemotactic receptor
Report as a plain number; the unit µg/mL is understood.

Before answering, review these 3 worked examples.
# compound, value units, Activity
records = [
    ("CC[C@H](C)C[C@H]1CC[C@](O)([C@](C)(O)C(=O)N[C@@H]2C(=O)N3NCCC[C@@H]3C(=O)N(C)[C@@H](C)C(=O)NCC(=O)N3NCCC[C@H]3C(=O)N(O)[C@H](C)C(=O)O[C@H]2C(C)C)O[C@@H]1C", "µg/mL", 5),
    ("CC[C@H](C)C[C@H]1CC[C@](O)([C@](C)(O)C(=O)N[C@@H]2C(=O)N3NCCC[C@@H]3C(=O)N(OC)[C@@H](C)C(=O)NCC(=O)N3NCCC[C@H]3C(=O)N(O)[C@H](C)C(=O)O[C@H]2C(C)C)O[C@@H]1C", "µg/mL", 5),
    ("CCC(C)C[C@H]1CC[C@](O)([C@](C)(O)C(=O)N[C@@H]2C(=O)N3NCCC[C@@H]3C(=O)N[C@@H](C)C(=O)NCC(=O)N3NCCC[C@H]3C(=O)N[C@H](C)C(=O)O[C@H]2C(C)C)O[C@@H]1C (single isomer, unassigned)", "µg/mL", 40),
]

Requested field: Activity. Item: CC[C@H](C)C[C@H]1CC[C@](O)([C@](C)(O)C(=O)N[C@@H]2C(=O)N3[C@H](CCCN3C)C(=O)N(O)[C@@H](C)C(=O)NCC(=O)N3[C@@H](CCCN3C)C(=O)N(O)[C@H](C)C(=O)O[C@H]2C(C)C)O[C@@H]1C
11

How about CC[C@H](C)C[C@H]1CC[C@](O)([C@](C)(O)C(=O)N[C@@H]2C(=O)N3NCCC[C@@H]3C(=O)N(C(C)=O)[C@@H](C)C(=O)NCC(=O)N3NCCC[C@H]3C(=O)N(O)[C@H](C)C(=O)O[C@H]2C(C)C)O[C@@H]1C ?
4

Source listed as ChEMBL document CHEMBL1151577.
